- Test system: UACC-62 melanoma
- test_method_notes: NCI-60 one-dose screen, 48 h
- run_conditions: 10 µM unless noted
About 83,000 compounds went through this panel and 20% of them were active in at least one assay; those are over-represented in the sample as a whole. Activity calls are given as the source filed them. The calls were made as follows: active = growth percent below 10; inactive = the rest.
Log the outcome using a class from Y (active), N (inactive)

stdin: Outcome logged for CCN(CC)CCNC(=O)c1cn2ncnc(Oc3ccc(NC(=O)Nc4ccc(Cl)c(C(F)(F)F)c4)c(F)c3)c2c1C in this assay:
stdout: Y

stdin: Outcome logged for O=S(=O)(NCCCNc1nccc(-c2c(-c3ccc(F)c(O)c3)nc3occn23)n1)c1ccccc1 in this assay:
stdout: N

stdin: Outcome logged for O=C1/C(=C/c2cccs2)SC(=S)N1CCCN1CCOCC1 in this assay:
stdout: N

stdin: Outcome logged for Cc1ccc(/C=N/Nc2nc(Nc3ccccc3)nc(-n3nc(C)cc3C)n2)cc1 in this assay:
stdout: N

stdin: Outcome logged for COc1ccc(C(c2cc(OC)c(OC)c(OC)c2)N2CCN(c3ccccc3)CC2)cc1 (stereo not given) in this assay:
stdout: N

###

- System: OVCAR-8 ovarian
- test_method_notes: NCI-60 one-dose screen, 48 h
- run_conditions: 10 µM unless noted
About 83,000 compounds went through this panel and 20% of them were active in at least one assay; those are over-represented in the sample as a whole. Calls of active or inactive are those of the source. How the source made its calls: active means growth percent below 10; inactive means the rest.
Log the outcome using a class from True = active, False = inactive

- input_smiles: "CCn1c(=S)[nH]c2c(=O)n(C)c(=O)n(C)c21"
  experimental_system: "OVCAR-8 ovarian"
  class_name: "False"
- input_smiles: "CC(C)OC(=O)c1ccc2[nH]c(O)c(C(=Nc3ccc(N(C)C(=O)CN4CCN(C)CC4)cc3)c3ccccc3)c2c1"
  experimental_system: "OVCAR-8 ovarian"
  class_name: "True"
- input_smiles: "Cc1ccc(/C=C2\\CN(C(=O)OC(C)(C)C)C/C(=C\\c3ccc(C)cc3)C2=O)cc1"
  experimental_system: "OVCAR-8 ovarian"
  class_name: "False"
- input_smiles: "O=C1/C(=C/c2cccs2)SC(=S)N1CCCN1CCOCC1"
  experimental_system: "OVCAR-8 ovarian"
  class_name: "False"
- input_smiles: "COc1cc(-c2nc(SCC(C)C)nc(Nc3cccc4ccccc34)c2C#N)cc(OC)c1OC"
  experimental_system: "OVCAR-8 ovarian"
  class_name: "False"

stdin: Outcome logged for COc1ccc(-c2nnc3n(C)c(=O)c4ccccc4n23)cc1N in this assay:
stdout: False

stdin: Outcome logged for Cn1c(=O)c2c(nc(NC3=NS(=O)(=O)c4ccccc43)n2CC(=O)N2CCc3ccccc32)n(C)c1=O in this assay:
stdout: False

stdin: Outcome logged for CC[C@]12C=CCN3CC[C@@]4(c5cc(NC(=O)CCC(=O)OCc6cn(Cc7ccc(F)cc7)nn6)c(OC)cc5N(C)[C@H]4[C@@](O)(C(=O)OC)[C@@H]1OC(C)=O)[C@@H]32 in this assay:
stdout: False

stdin: Outcome logged for O=C(/C=C/c1ccccc1)c1cccc(OCCCOc2cccc(C(=O)/C=C/c3ccccc3)c2)c1 in this assay:
stdout: False

###

- Test system: SK-MEL-28 melanoma
- test_method_notes: NCI-60 one-dose screen, 48 h (100 = growth as untreated, 0 = no growth, -100 = all killed)
- run_conditions: 10 µM unless noted
Compounds without any hit were thinned out: in the full panel of roughly 83,000, 20% have a hit.
Known growth of a selection of molecules
// return numeric value only (unit: %, not printed)

- molecule: "CCOC(=O)c1cc(C(=O)c2cc(OC)c(OC)c(OC)c2)n2ccc(-c3ccncc3)cc12"
  growth [%]: 110
- molecule: "COc1ccc(C2c3sc4c(F)cccc4c3Oc3nc[nH]c(=O)c32)cc1 (configuration not stated)"
  growth [%]: 92.6
- molecule: "Cc1nc2sc(C(=O)Nc3cccc(Cl)c3C)c(N)c2cc1C(=O)c1ccccc1"
  growth [%]: 42.7

stdin: Recorded growth for O=S(=O)(NCCCNc1nccc(-c2c(-c3ccc(F)c(O)c3)nc3occn23)n1)c1ccccc1 , please?
stdout: 24.7

stdin: Recorded growth for OCCOCCN(Cc1ccccn1)Cc1cc(I)cc(I)c1O , please?
stdout: 95.4

stdin: Recorded growth for CCOC(=O)Cn1c(O)c(N=Nc2ccc(S(N)(=O)=O)cc2)c2cc(Br)ccc21 , please?
stdout: 85.2

stdin: Recorded growth for CC(=O)[C@@H]1CCC=C2CC[C@]3(C)[C@@H](CC[C@@H]4[C@@]5(C)CCCNC(C)(C)[C@@H]5CC[C@]43C)[C@H]21 , please?
stdout: -42.3

stdin: Recorded growth for Oc1c(Cl)cc(Cl)cc1/C=N/Nc1nnc(N/N=C/c2cc(Cl)cc(Cl)c2O)c2ccccc12 , please?
stdout: 22.9

stdin: Recorded growth for O=C1/C(=C/c2ccc(Cl)c(Cl)c2)CN(C(=O)C(Cl)Cl)C/C1=C\c1ccc(Cl)c(Cl)c1 , please?
stdout: -64.4
